Tested on: K98450-129-R-PDC complex spheroid growth, percent test/control
Experiment: Anticancer human tumor K98450-129-R-PDC patient-derived colon adenocarcinoma cell line growth inhibition [RAS]
Conditions: second compound 0.03 µM; first compound 0.0949 µM; hits give low values
Entries and their viability, T/C
Provide the reading as a plain figure in %.

{"compound": "CC1(C)CCC(Nc2ncc(C(F)(F)F)c(-c3c[nH]c4c(P(C)(C)=O)c(C#N)ccc34)n2)CN1 (centres undefined) + CCn1c(-c2cc(N3CCN(C)CC3)cnc2C(C)OC)c2c3cc(ccc31)-c1csc(n1)CC(NC(=O)C1CC1C)C(=O)N1CCCC(N1)C(=O)OCC(C)(C)C2", "system": "K98450-129-R-PDC complex spheroid growth, percent test/control", "unitOfMeasurement": "%", "viability, T/C": 63.1}
{"compound": "CC1(C)CCC(Nc2ncc(C(F)(F)F)c(-c3c[nH]c4c(P(C)(C)=O)c(C#N)ccc34)n2)CN1 (centres undefined) + CCn1c(-c2cccnc2C(C)OC)c2c3cc(ccc31)N1CCOC(CC(NC(=O)C(C(C)C)N(C)C(=O)C3(F)CCN(C(=O)C#CC(C)(C)N(C)C)CC3)C(=O)N3CCCC(N3)C(=O)OCC(C)(C)C2)C1", "system": "K98450-129-R-PDC complex spheroid growth, percent test/control", "unitOfMeasurement": "%", "viability, T/C": 48.2}
{"compound": "CCc1c2c(nc3ccc(O)cc13)-c1cc3c(c(=O)n1C2)COC(=O)[C@]3(O)CC + CCn1c(-c2cccnc2C(C)OC)c2c3cc(ccc31)N1CCOC(CC(NC(=O)C(C(C)C)N(C)C(=O)C3(F)CCN(C(=O)C#CC(C)(C)N(C)C)CC3)C(=O)N3CCCC(N3)C(=O)OCC(C)(C)C2)C1", "system": "K98450-129-R-PDC complex spheroid growth, percent test/control", "unitOfMeasurement": "%", "viability, T/C": 19.5}

Let's switch to this compound now.
Entry under review: CCc1c2c(nc3ccc(O)cc13)-c1cc3c(c(=O)n1C2)COC(=O)[C@]3(O)CC + CCn1c(-c2cc(N3CCN(C)CC3)cnc2C(C)OC)c2c3cc(ccc31)-c1csc(n1)CC(NC(=O)C1CC1C)C(=O)N1CCCC(N1)C(=O)OCC(C)(C)C2 . Reported viability, T/C?
22.8

###

System: K98450-129-R-PDC complex spheroid growth, percent test/control
Assay: Anticancer human tumor K98450-129-R-PDC cell line growth inhibition [RAS];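 further: luminescence used as a proxy for viable cell amount; spheroids exposed to agents for seven days before the viability readout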
Details: second compound 0.000949 µM; first compound 0.0316 µM; hits give low values
Entries and their viability, T/C
Provide the reading as a plain figure in %.

Answered cases to consult:
{"molecule": "CC(C)n1nc(-c2ccc3oc(N)nc3c2)c2c(N)ncnc21 + CCn1c(-c2cccnc2C(C)OC)c2c3cc(ccc31)N1CCOC(CC(NC(=O)C(C(C)C)N(C)C(=O)C3(F)CCN(C(=O)C#CC(C)(C)N(C)C)CC3)C(=O)N3CCCC(N3)C(=O)OCC(C)(C)C2)C1", "viability, T/C [%]": 50.5}
{"molecule": "C=CC(=O)Nc1cc(Nc2nccc(-c3cn(C)c4ccccc34)n2)c(OC)cc1N(C)CCN(C)C + CCn1c(-c2cc(N3CCN(C)CC3)cnc2C(C)OC)c2c3cc(ccc31)-c1csc(n1)CC(NC(=O)C1CC1C)C(=O)N1CCCC(N1)C(=O)OCC(C)(C)C2", "viability, T/C [%]": 94.1}
{"molecule": "CC(C)NCC(C(=O)N1CCN(c2ncnc3c2C(C)CC3O)CC1)c1ccc(Cl)cc1 (centres undefined) + CCn1c(-c2cc(N3CCN(C)CC3)cnc2C(C)OC)c2c3cc(ccc31)-c1csc(n1)CC(NC(=O)C1CC1C)C(=O)N1CCCC(N1)C(=O)OCC(C)(C)C2", "viability, T/C [%]": 104}

Let's switch to this molecule now.
Observed viability, T/C on K98450-129-R-PDC complex spheroid growth, percent test/control for Nc1ccn(C2OC(CO)C(O)C2(F)F)c(=O)n1 (centres undefined) + CCn1c(-c2cccnc2C(C)OC)c2c3cc(ccc31)N1CCOC(CC(NC(=O)C(C(C)C)N(C)C(=O)C3(F)CCN(C(=O)C#CC(C)(C)N(C)C)CC3)C(=O)N3CCCC(N3)C(=O)OCC(C)(C)C2)C1 , please.
51.7

###

System: K98450-129-R-PDC complex spheroid growth, percent test/control
Experiment: Anticancer human tumor K98450-129-R-PDC cell line growth inhibition [RAS];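 further: luminescence used as a proxy for viable cell amount; spheroids exposed to agents for seven days before the viability readout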
Conditions: second compound 0.003 µM; first compound 0.316 µM; hits give low values
quantityMeasured: viability, T/C (%)
Provide the reading as a plain figure in %.

Answered cases to consult:
{"molecule": "CCC(CC)c1cc(NC2CCC(N)C2)n2nccc2n1 (stereo not drawn) + CCn1c(-c2cccnc2C(C)OC)c2c3cc(ccc31)N1CCOC(CC(NC(=O)C(C(C)C)N(C)C(=O)C3(F)CCN(C(=O)C#CC(C)(C)N(C)C)CC3)C(=O)N3CCCC(N3)C(=O)OCC(C)(C)C2)C1", "viability, T/C / %": 56.8}
{"molecule": "C=CC(=O)N1CCN(c2nc(OCC3CCCN3C)nc3c(F)c(-c4nc(N)cc(C)c4C(F)(F)F)c(Cl)cc23)C(C)C1 (stereo not drawn) + CCn1c(-c2cccnc2C(C)OC)c2c3cc(ccc31)N1CCOC(CC(NC(=O)C(C(C)C)N(C)C(=O)C3(F)CCN(C(=O)C#CC(C)(C)N(C)C)CC3)C(=O)N3CCCC(N3)C(=O)OCC(C)(C)C2)C1", "viability, T/C / %": 45.9}
{"molecule": "Cc1nc(N2CCC3(CC2)COC(C)C3N)c(CO)nc1Sc1ccnc(N)c1Cl (stereo not drawn) + CCn1c(-c2cc(N3CCN(C)CC3)cnc2C(C)OC)c2c3cc(ccc31)-c1csc(n1)CC(NC(=O)C1CC1C)C(=O)N1CCCC(N1)C(=O)OCC(C)(C)C2", "viability, T/C / %": 61.8}
{"molecule": "CCC(CC)c1cc(NC2CCC(N)C2)n2nccc2n1 (stereo not drawn) + CCn1c(-c2cc(N3CCN(C)CC3)cnc2C(C)OC)c2c3cc(ccc31)-c1csc(n1)CC(NC(=O)C1CC1C)C(=O)N1CCCC(N1)C(=O)OCC(C)(C)C2", "viability, T/C / %": 75.7}
{"molecule": "NC1c2ccccc2OC12CCN(c1cnc3c(N4CCCc5ncccc54)n[nH]c3n1)CC2 (stereo not drawn) + CCn1c(-c2cccnc2C(C)OC)c2c3cc(ccc31)N1CCOC(CC(NC(=O)C(C(C)C)N(C)C(=O)C3(F)CCN(C(=O)C#CC(C)(C)N(C)C)CC3)C(=O)N3CCCC(N3)C(=O)OCC(C)(C)C2)C1", "viability, T/C / %": 7.71}
{"molecule": "Cc1nc(N2CCC3(CC2)COC(C)C3N)c(CO)nc1Sc1ccnc(N)c1Cl (stereo not drawn) + CCn1c(-c2cccnc2C(C)OC)c2c3cc(ccc31)N1CCOC(CC(NC(=O)C(C(C)C)N(C)C(=O)C3(F)CCN(C(=O)C#CC(C)(C)N(C)C)CC3)C(=O)N3CCCC(N3)C(=O)OCC(C)(C)C2)C1", "viability, T/C / %": 16.9}

Entry under review: CCN1CCN(Cc2ccc(Nc3ncc(F)c(-c4cc(F)c5nc(C)n(C(C)C)c5c4)n3)nc2)CC1 + CCn1c(-c2cccnc2C(C)OC)c2c3cc(ccc31)N1CCOC(CC(NC(=O)C(C(C)C)N(C)C(=O)C3(F)CCN(C(=O)C#CC(C)(C)N(C)C)CC3)C(=O)N3CCCC(N3)C(=O)OCC(C)(C)C2)C1 . Reported viability, T/C?
43

Lookup C=CC(=O)N1CCN(c2nc(OCC3CCCN3C)nc3c(F)c(-c4nc(N)cc(C)c4C(F)(F)F)c(Cl)cc23)C(C)C1 (stereo not drawn) + CCn1c(-c2cc(N3CCN(C)CC3)cnc2C(C)OC)c2c3cc(ccc31)-c1csc(n1)CC(NC(=O)C1CC1C)C(=O)N1CCCC(N1)C(=O)OCC(C)(C)C2
42.1

###

Tested on: K98450-129-R-PDC complex spheroid growth, percent test/control
Assay: Anticancer human tumor K98450-129-R-PDC cell line growth inhibition [RAS];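 further: luminescence used as a proxy for viable cell amount; spheroids exposed to agents for seven days before the viability readout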
Conditions: second compound 0.000949 µM; first compound 3.16 µM; hits give low values
Entries and their viability, T/C
Provide the reading as a plain figure in %.

{"molecule": "CC(C)NCC(C(=O)N1CCN(c2ncnc3c2C(C)CC3O)CC1)c1ccc(Cl)cc1 (configuration not stated) + CCn1c(-c2cc(N3CCN(C)CC3)cnc2C(C)OC)c2c3cc(ccc31)-c1csc(n1)CC(NC(=O)C1CC1C)C(=O)N1CCCC(N1)C(=O)OCC(C)(C)C2", "unitOfMeasurement": "%", "viability, T/C": 100}

Let's switch to this molecule now.
Entry under review: C[C@@H](NC(=O)c1ncnc(N)c1Cl)c1ncc(C(=O)Nc2cc(C(F)(F)F)c(Cl)cn2)s1 + CCn1c(-c2cccnc2C(C)OC)c2c3cc(ccc31)N1CCOC(CC(NC(=O)C(C(C)C)N(C)C(=O)C3(F)CCN(C(=O)C#CC(C)(C)N(C)C)CC3)C(=O)N3CCCC(N3)C(=O)OCC(C)(C)C2)C1 . Reported viability, T/C?
54.4
